Tested on: CD33 (Sino Biological, Cat #12238-H08H) (UniProt P20138 18-259)
Sequence (P20138 18-259 limits assumed): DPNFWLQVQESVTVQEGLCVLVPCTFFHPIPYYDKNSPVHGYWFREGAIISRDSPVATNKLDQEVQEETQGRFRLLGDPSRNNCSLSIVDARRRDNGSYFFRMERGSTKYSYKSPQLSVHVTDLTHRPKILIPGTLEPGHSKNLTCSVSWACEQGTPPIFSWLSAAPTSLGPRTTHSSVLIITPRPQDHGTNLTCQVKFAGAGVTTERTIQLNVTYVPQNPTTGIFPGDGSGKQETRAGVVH
Test name: BLI, IgG captured on anti-human Fc sensor, 50 nM CD33, pH 7.4 vs pH 5.4
Quantity kind: binding result

Binder: MYT1606 (antibody, V domains shown, IgG; gemtuzumab VL variant #17 (A55H)) VH: EVQLVQSGAEVKKPGSSVKVSCKASGYTITDSNIHWVRQAPGQSLEWIGYIYPYNGGTDYNQKFKNRATLTVDNPTNTAYMELSSLRSEDTDFYYCVNGNPWLAYWGQGTLVTVSS VL: DIQLTQSPSTLSASVGDRVTITCRASESLDNYGIRFLTWFQQKPGKAPKLLMYAHSNQGSGVPSRFSGSGSGTEFTLTISSLQPDDFATYYCQQTKEVPWSFGQGTKVEVK
Experimental result: binds
--
Binder: MYT2624 (antibody, V domains shown, IgG; IMGN779 VL variant #8 (F31H)) VH: QVQLQQPGAEVVKPGASVKMSCKASGYTFTSYYIHWIKQTPGQGLEWVGVIYPGNDDISYNQKFQGKATLTADKSSTTAYMQLSSLTSEDSAVYYCAREVRLRYFDVWGQGTTVTVSS VL: EIVLTQSPGSLAVSPGERVTMSCKSSQSVFHSSSQKNYLAWYQQIPGQSPRLLIYWASTRESGVPDRFTGSGSGTDFTLTISSVQPEDLAIYYCHQYLSSRTFGQGTKLEIK
Experimental result: binds
